target: CpLIP2 lipase (Candida parapsilosis, UniProt Q8NIN8); assay: Quenching of CpLIP2 intrinsic tryptophan fluorescence by flavonols (Stern–Volmer, Lehrer, van't Hoff analysis); format: binding; conditions: 318 K; Lehrer equation
Sequence (Q8NIN8 entry or part of it): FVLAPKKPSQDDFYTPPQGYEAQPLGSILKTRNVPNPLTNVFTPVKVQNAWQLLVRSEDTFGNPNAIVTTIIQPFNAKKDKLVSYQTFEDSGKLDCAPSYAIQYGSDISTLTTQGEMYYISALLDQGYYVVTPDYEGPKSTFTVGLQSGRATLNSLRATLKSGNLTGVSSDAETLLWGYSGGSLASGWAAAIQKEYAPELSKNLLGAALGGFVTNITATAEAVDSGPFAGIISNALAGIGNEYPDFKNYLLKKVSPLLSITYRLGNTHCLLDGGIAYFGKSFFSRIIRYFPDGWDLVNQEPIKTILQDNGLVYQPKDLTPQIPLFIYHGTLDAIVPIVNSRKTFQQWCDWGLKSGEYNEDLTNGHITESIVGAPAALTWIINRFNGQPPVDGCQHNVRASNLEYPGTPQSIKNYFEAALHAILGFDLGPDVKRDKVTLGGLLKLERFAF
Readout type: fa (fraction of accessible W residues to the quencher)

>>> df
                                test_smiles                              study_system  quantitative_result
0      O=c1c(O)c(-c2ccccc2)oc2cc(O)cc(O)c12  CpLIP2 lipase (Candida parapsilosis, UniProt Q8NIN8)                 0.33
1  O=c1c(O)c(-c2cc(O)c(O)c(O)c2)oc2cc(O)cc(O)c12  CpLIP2 lipase (Candida parapsilosis, UniProt Q8NIN8)                 0.30
2   O=c1c(O)c(-c2ccc(O)cc2)oc2cc(O)cc(O)c12  CpLIP2 lipase (Candida parapsilosis, UniProt Q8NIN8)                 0.42
3  O=c1c(O)c(-c2ccc(O)c(O)c2)oc2cc(O)cc(O)c12  CpLIP2 lipase (Candida parapsilosis, UniProt Q8NIN8)                 0.55

* * *

biological target: CpLIP2 lipase (Candida parapsilosis, UniProt Q8NIN8); assay: Quenching of CpLIP2 intrinsic tryptophan fluorescence by flavonols (Stern–Volmer, Lehrer, van't Hoff analysis); type: binding; conditions: 328 K
Listing of entries alongside the reported n (number of binding sites).
Readout type: n (number of binding sites)

>>> print(df.to_string())
                                test_smiles                              study_system  quantitative_result
0  O=c1c(O)c(-c2ccc(O)c(O)c2)oc2cc(O)cc(O)c12  CpLIP2 lipase (Candida parapsilosis, UniProt Q8NIN8)                 0.85
1  O=c1c(O)c(-c2cc(O)c(O)c(O)c2)oc2cc(O)cc(O)c12  CpLIP2 lipase (Candida parapsilosis, UniProt Q8NIN8)                 0.51
2      O=c1c(O)c(-c2ccccc2)oc2cc(O)cc(O)c12  CpLIP2 lipase (Candida parapsilosis, UniProt Q8NIN8)                 0.66
3   O=c1c(O)c(-c2ccc(O)cc2)oc2cc(O)cc(O)c12  CpLIP2 lipase (Candida parapsilosis, UniProt Q8NIN8)                 0.75

* * *

# key: entry, value: percentage of transfer efficiency
biological target: CpLIP2 lipase (Candida parapsilosis); assay: Fluorescence resonance energy transfer between CpLIP2 and flavonols (Förster theory); assay type: binding
Readout type: percentage of transfer efficiency (%)

In [3]: df
Out[3]:
                                test_smiles                          study_system  unit_text  quantitative_result
0      O=c1c(O)c(-c2ccccc2)oc2cc(O)cc(O)c12  CpLIP2 lipase (Candida parapsilosis)          %                   24
1  O=c1c(O)c(-c2cc(O)c(O)c(O)c2)oc2cc(O)cc(O)c12  CpLIP2 lipase (Candida parapsilosis)          %                   23
2  O=c1c(O)c(-c2ccc(O)c(O)c2)oc2cc(O)cc(O)c12  CpLIP2 lipase (Candida parapsilosis)          %                    6
3   O=c1c(O)c(-c2ccc(O)cc2)oc2cc(O)cc(O)c12  CpLIP2 lipase (Candida parapsilosis)          %                   12
